Listed here: items and their measured pKi.
Biological target: Beta-2 adrenergic receptor (Homo sapiens)
Sequence (P07550 whole entry): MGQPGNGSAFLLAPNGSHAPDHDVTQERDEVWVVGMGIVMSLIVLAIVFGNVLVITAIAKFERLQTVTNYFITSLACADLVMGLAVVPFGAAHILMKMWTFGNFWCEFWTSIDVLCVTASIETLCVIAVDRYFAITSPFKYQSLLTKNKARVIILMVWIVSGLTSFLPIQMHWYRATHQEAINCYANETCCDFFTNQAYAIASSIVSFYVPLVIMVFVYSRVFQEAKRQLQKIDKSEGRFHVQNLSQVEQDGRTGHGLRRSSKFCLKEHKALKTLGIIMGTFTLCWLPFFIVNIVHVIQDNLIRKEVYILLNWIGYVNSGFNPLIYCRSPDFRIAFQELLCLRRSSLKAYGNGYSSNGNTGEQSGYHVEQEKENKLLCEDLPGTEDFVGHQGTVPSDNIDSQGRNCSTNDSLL
// pKi is dimensionless: -log10 of concentration (M)

Example entries begin here.
compound_structure_string | pKi
COc1cc(CCNC[C@H](O)COc2ccc(O)c(O)c2)ccc1OCCCc1ccccc1 | 8.14
COc1ccccc1OCCNC[C@H](O)c1cccc2[nH]c3ccccc3c12 | 8.48
CC(C)NC[C@H](O)COc1ccc(O)c(O)c1 | 7.92
COc1ccccc1OCCNC[C@H](O)Cc1ccc(O)c(O)c1 | 5.28

Here is the next item to consider.
Which pKi reading was recorded for the compound "COc1ccccc1OCCNC[C@@H](O)COc1ccc(O)c(O)c1" ?
5.10
